System: RPMI-8226 leukemia
Assay: NCI tumour cell line growth inhibition, 48 h
Measured Parameter: GI50

compound=CN(C)/[N+]([O-])=N/Oc1cc(Nc2cccc(C(=O)O)c2)c([N+](=O)[O-])cc1[N+](=O)[O-] result_value="> 100 µM"
compound="COc1ccc(-c2ccc(C3CC(c4ccc(O)cc4)=NN3)o2)c([N+](=O)[O-])c1 (stereo unspecified)" result_value="11.6 µM"
compound="N#CC1=C(N)Oc2cc3c(cc2C1c1cccs1)OCO3 (stereo unspecified)" result_value="0.451 µM"
compound=Oc1ccc2ccccc2c1C=NCCCN=Cc1c(O)ccc2ccccc12 result_value="4.11 µM"
compound=CC1=C(C)C(=O)c2c(c(C(=O)c3ccccc3)c3nc4ccccc4n3c2C)C1=O result_value="> 100 µM"
compound=O=[N+]([O-])c1ccc(N2CCN(Cc3ccccc3)CC2)c2c1no[n+]2[O-] result_value="1.76 µM"
compound=CCC1=C(C)/C(=C/c2[nH]c(C)c(C(=O)CCCCC(=O)OC)c2C)N=C1c1ccc[nH]1 result_value="3.37 µM"
compound=O=S(=O)([O-])[O-].[OH3+].[OH3+].[OH3+].[Ru+2].c1ccccc1 result_value="> 100 µM"
compound=CCN1C(=O)C/C(=C\C(C)=O)Nc2ccccc21 result_value="> 100 µM"
compound=C=C1C(=O)O[C@H]2[C@H]1CC/C(COC(=O)C(=O)c1c[nH]c3ccccc13)=C\CC[C@@]1(C)O[C@@H]21 result_value="2.07 µM"
compound=COc1ccc(C(=O)Cn2c(C(=O)c3ccc(OC)cc3)nc3ccccc32)cc1 result_value="1.52 µM"
